Data provenance: patent US20260242478A1

Target: T1, Anti-PSMA Fab (SEQ ID NOs: 19, 20)
T1 construct: Biotinylated and captured on neutravidin coated plates in the phage ELISA; also called 006 PSMA Fab
Experiment: phage binding ELISA; biotinylated PSMA Fab on neutravidin plate, clonal phage detected with anti-M13-HRP
Where no end group is shown, it is not given here.
property measured: Anti-PSMA Fab (SEQ ID NOs: 19, 20) signal

>>> reading("LSHWCSPQWMCSGF (tested as crude clonal phage supernatant) [Phage-2188]")
1.63
>>> reading("VDNWCVPRWMCDGF (tested as crude clonal phage supernatant) [Phage-2191]")
1.63
>>> reading("EIKWCTPAWMCEGF (tested as crude clonal phage supernatant) [Phage-2187]")
1.63
>>> reading("HEKLCIPWWMCEDH (tested as crude clonal phage supernatant) [Phage-2182]")
1.64
>>> reading("EPKLCRPAWMCVGM (tested as crude clonal phage supernatant) [Phage-2179]")
1.64
>>> reading("WSKSCTPAWMCEGF (tested as crude clonal phage supernatant) [Phage-2185]")
1.63
>>> reading("VHMRCIPEWMCQVF (tested as crude clonal phage supernatant) [Phage-2183]")
1.63
>>> reading("EHHWCIPKWMCNEV (tested as crude clonal phage supernatant) [Phage-2190]")
1.63
>>> reading("LIKWCTPPWMCEQL (tested as crude clonal phage supernatant) [Phage-2180]")
1.64
>>> reading("TEKWCIPEWMCAHQ (cysteine pairing not given here; also: displayed on bacteriophage as fusion to pIII, tested as crude clonal phage supernatant) [Phage-2184]")
1.63
>>> reading("WYKWCTPAWMCEFT (tested as crude clonal phage supernatant) [Phage-2189]")
1.63
>>> reading("EFKWCIPAWMCTAA (tested as crude clonal phage supernatant) [Phage-2186]")
1.63
>>> reading("ITKWCTPAWMCAHL (cysteine pairing not given here; also: displayed on bacteriophage as fusion to pIII, tested as crude clonal phage supernatant) [Phage-2178]")
1.64
>>> reading("LDKLCIPSWMCWSH (tested as crude clonal phage supernatant) [Phage-2181]")
1.64
>>> reading("SLHLCIPQWMCGIS (cysteine pairing not given here; also: displayed on bacteriophage as fusion to pIII, tested as crude clonal phage supernatant) [Phage-2177]")
1.64
